- Test system: HSkMC
- experiment.notes: cytotoxicity call (relative viability < 0.9)
- test.settings: 10 µM
Out of some 39,000 compounds screened, about 1,500 (3.8%) were called active. Shown is part of a subset that was picked to be rich in actives.
Classes used: True = active, False = inactive

# molecule, label.value
rows = [
    ("C[C@@H]1CN([C@H](C)CO)C(=O)Cc2cc(NC(=O)Nc3ccc(C(F)(F)F)cc3)ccc2O[C@H]1CN(C)Cc1ccc(Cl)c(Cl)c1", "True"),
    ("CC(C)(C)S(=O)N1Cc2cc(C(=O)Nc3ccc(-c4ccccc4)cc3)nc(-c3cccc(-c4cccc(F)c4)c3)c2[C@@H]1CCO (stereo partly drawn)", "True"),
    ("C[C@@H]1CN([C@H](C)CO)C(=O)c2cc(NC(=O)Cn3cnnn3)ccc2O[C@@H]1CN(C)C(=O)Nc1ccc(C(F)(F)F)cc1", "False"),
    ("C[C@@H]1CN([C@@H](C)CO)C(=O)Cc2cc(NC(=O)Nc3ccc(C(F)(F)F)cc3)ccc2O[C@H]1CN(C)Cc1ccc(Cl)c(Cl)c1", "True"),
    ("COc1ccc(CCNS(=O)(=O)c2cn(C)c(=O)n(C)c2=O)cc1", "False"),
    ("O=S1(=O)C[C@H](O)[C@@H](N2CCN(CCO)CC2)C1", "False"),
    ("CC(C)(C)[S@](=O)N1Cc2cc(C(=O)NCCc3ccncc3)nc(-c3cccc(-c4ccccc4)c3)c2[C@@H]1CCO", "False"),
    ("NCc1nncn1-c1ccc(F)cc1", "False"),
]

* * *

- System: HSkMC
- experiment.notes: cytotoxicity call (relative viability < 0.9)
- test.settings: 10 µM
Out of some 39,000 compounds screened, about 1,500 (3.8%) were called active. This is one part of a sample in which actives are shown more often than they occur.
property.label: cytotoxicity call

# chemical.structure, property.label, result
records = [
    ("COc1ccc(NC(=O)Nc2ccc3c(c2)C(=O)N([C@@H](C)CO)C[C@H](C)[C@H](CN(C)Cc2ccc(C(=O)O)cc2)OCCCC[C@@H](C)O3)cc1", "cytotoxicity call", "inactive"),
    ("Cc1ccc(S(=O)(=O)N(C)C[C@H]2Oc3ccc(NC(=O)Cn4cnnn4)cc3CC(=O)N([C@H](C)CO)C[C@@H]2C)cc1", "cytotoxicity call", "inactive"),
    ("C[C@@H]1CCCCO[C@@H](CN(C)S(=O)(=O)c2cn(C)cn2)[C@H](C)CN([C@@H](C)CO)C(=O)c2cc(NS(=O)(=O)c3ccc(F)cc3)ccc2O1", "cytotoxicity call", "inactive"),
]

* * *

- Test system: HSkMC (human skeletal muscle cells)
- experiment.notes: cytotoxicity call (relative viability < 0.9)
- test.settings: 10 µM
Among all 39,000 compounds or so, about 1,500 (3.8%) were called active. The list comes from a sample in which actives are over-represented; it also holds close analogues and randomly drawn compounds.

# chemical.structure, cytotoxicity call
data = [
    ("Cc1ccc(S(=O)(=O)Nc2ccc3c(c2)C(=O)N([C@H](C)CO)C[C@H](C)[C@H](CN(C)Cc2ccc(C(F)(F)F)cc2)OCCCC[C@@H](C)O3)cc1", "inactive"),
    ("COc1ccc(CN(C)C[C@H]2OCCCC[C@H](C)Oc3ccc(NC(=O)Nc4ccc5c(c4)OCO5)cc3C(=O)N([C@@H](C)CO)C[C@H]2C)cc1", "inactive"),
    ("C[C@@H]1CCCCO[C@H](CN(C)Cc2ccc(C(F)(F)F)cc2)[C@H](C)CN([C@@H](C)CO)C(=O)c2cc(NS(=O)(=O)c3ccc(F)cc3)ccc2O1", "active"),
    ("C[C@H](CO)N1C[C@H](C)[C@@H](CN(C)C(=O)Nc2cccc3ccccc23)Oc2ccc(NC(=O)Nc3ccc(F)cc3)cc2C1=O", "inactive"),
    ("C[C@@H]1CN([C@@H](C)CO)C(=O)c2cc(NC(=O)Nc3ccc(F)cc3)ccc2O[C@@H]1CN(C)C(=O)Nc1cccc2ccccc12", "active"),
    ("Cc1ccc(S(=O)(=O)Nc2ccc3c(c2)C(=O)N([C@H](C)CO)C[C@@H](C)[C@@H](CN(C)Cc2ccc(C(F)(F)F)cc2)OCCCC[C@H](C)O3)cc1", "inactive"),
]
